Test system: parasites (ring stage, in human red blood cell culture)
Test: Parasite LDH growth assay (antiparasite potency, Parasite Assay)
Format: cell-based, Plasmodium falciparum
Details: Plasmodium falciparum, Erythrocyte, 72 h, 0.7% rings, 2% haematocrit, 72 hours at 37° C., LDH readout of parasite growth
Items are presented alongside their recorded pEC50.
In simple prose, pEC50 is minus the logarithm base ten of a concentration in moles per litre.

Here are 2 molecules together with their reported answers.
# molecule, pEC50
records = [
    ("CCC1(CC)CC(=O)N([C@@H]2CCOc3c(Cl)cc(C(=O)N[C@H]4CC(C)(C)Oc5ccccc54)cc32)C(=N)N1 [Example 26A]", 8.89),
    ("CCC1(CC)CC(=O)N([C@H]2c3cc(C(=O)N[C@@H]4c5ccccc5OC(C)(C)[C@H]4O)ccc3OC2(COC)COC)C(=N)N1", 8.49),
]

Please list pEC50 recorded for the molecule `CC1(C)CC(=O)N([C@@H]2CCc3ccc(C(=O)N[C@@H]4c5ccccc5C[C@@]4(C)O)cc32)C(=N)N1`
7.74

Please list pEC50 recorded for the molecule CCC1(CC)CC(=O)N([C@@H]2CCOc3ccc(C(=O)N[C@H]4c5cc(F)ccc5OC(C)(C)[C@@H]4O)cc32)C(=N)N1 [Example 25B]
7.22

Please list pEC50 recorded for the molecule `CCC1(CC)CC(=O)N([C@@H]2CCOc3ccc(C(=O)N[C@@H](C)c4ccccc4)cc32)C(=N)N1`
7.06

Please list pEC50 recorded for the molecule CCC1(CC)CC(=O)N([C@@H]2CC(C)(C)Oc3ccc(C(=O)N[C@@H]4c5ccccc5C[C@H]4O)cc32)C(=N)N1 [Example 35A]
8.62

Source of measurements: patent US12350270B2
